Values compiled from patent US9290476B2.

molecular target: human RORγt ligand binding domain (RORγt LBD) (Homo sapiens (Human)); experiment: RORγt ThermoFluor assay (thermal shift binding affinity); settings: estimated from thermal shift
Sequence (P51449 other isoform, or with tags, fused parts or gaps): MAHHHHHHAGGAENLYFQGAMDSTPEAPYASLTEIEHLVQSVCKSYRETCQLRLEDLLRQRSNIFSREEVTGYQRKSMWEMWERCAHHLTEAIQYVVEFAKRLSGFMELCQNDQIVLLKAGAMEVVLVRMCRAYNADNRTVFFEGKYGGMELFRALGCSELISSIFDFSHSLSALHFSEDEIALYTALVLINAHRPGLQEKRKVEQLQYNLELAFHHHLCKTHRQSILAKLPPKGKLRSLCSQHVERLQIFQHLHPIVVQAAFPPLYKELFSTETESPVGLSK
readout.label: Kd
I'd appreciate it if you included the unit after the number.

Sample answers from the record:
molecule	val
CON(C)c1nc2ccc(C(O)(c3ccc(C(F)(F)F)nc3)c3cncn3C)cc2c(Cl)c1Cc1ccc(-n2cccn2)cc1 (single isomer, unassigned) [Example 67B]	6.3 nM
Cc1ccc(C(O)(c2ccc3nc(C#N)c(Cc4ccc(C(F)(F)F)cc4)c(C#N)c3c2)c2cnnn2C)c(C)n1 (single isomer, unassigned) [Example 88C]	0.04 nM
COc1nc2c(C)cc(C(O)(c3ccc(C(F)(F)F)nc3)c3cncn3C)cc2c(Cl)c1Cc1ccc(-n2cccn2)cc1 (stereo not drawn) [Example 29A]	4.8 nM

Working through the 3 molecules below one at a time, give Kd for each.
1. CNC(=O)c1nc2ccc(C(O)(c3ccc(F)cc3)c3cncn3C)cc2c(C(F)(F)F)c1Cc1ccccc1 (stereo not drawn)
2. COc1ccc(C(O)(c2ccc3nc(OC)c(Cc4ccc(-n5cccn5)cc4)c(Cl)c3c2)c2cncn2C)cn1 (stereo not drawn)
3. COc1nc2ccc(C(O)(c3sc(C)nc3C)c3cnnn3C)cc2c(Cl)c1Cc1ccc(C(F)(F)F)cc1 (single isomer, unassigned) [Example 79B]

Key:
1. 1100 nM
2. 2.8 nM
3. 57 nM

---

biological target: UniProt:P51449; test: RORγt reporter assay (GAL4-RORγt LBD luciferase in HEK293T cells); assay type: cell-based; settings: HEK-293T, read-out: RORγt reporter Assay, % inhibition @ 6 μM, HEK293T cells, 6 μM
For each of the compounds below, state its inhibition at 6 µM.
Numbers only, in %.

Sample answers from the record:
compound	unit.text	inhibition at 6 µM
COc1nc2ccc(C(O)(c3cnnn3C)c3cnc(C)n3C)cc2c(C#N)c1Cc1ccc(C(F)(F)F)cc1 (single isomer, unassigned) [Example 81B]	%	104
Cn1cncc1C(O)(c1ccc(Cl)cc1)c1ccc2nc(Cl)c(Cc3ccc(-n4cccn4)cc3)c(Cl)c2c1 (stereo not shown)	%	104
COc1nc2ccc(C(O)(c3cnnn3C)C3CN(C(C)=O)C3)cc2c(Cl)c1Cc1ccc(C(F)(F)F)cc1 (single isomer, unassigned) [Example 97B]	%	98

For the next question, use this compound.
Exercise: # get_value(readout='inhibition at 6 µM', item= COc1nc2c(C)cc(C(O)(c3cncn3C)c3cncn3C)cc2c(Cl)c1Cc1ccc(-n2cccn2)cc1 )
Key: 102

---

target: human RORγt LBD (Homo sapiens (Human), UniProt P51449); experiment: RORγt reporter assay (GAL4-RORγt LBD luciferase in HEK293T cells); type: cell-based; conditions: HEK293T cells, 24 hours compound treatment
For each of the molecules below, state its IC50.
One number for each entry, in µM.

molecule	unit.text	IC50
COc1nc2ccc(C(O)(c3ccc(F)cc3)c3cncn3C)cc2c(Cl)c1Cc1ccc(S(C)(=O)=O)cc1 (single isomer, unassigned) [Example 54C]	µM	0.098
COc1nc2ccc(C(O)(c3ccc(C(F)(F)F)nc3)c3cncn3C)cc2c(Cl)c1Cc1cc2ccccc2s1 (stereo not shown) [Example 37A]	µM	0.028
COc1nc2ccc(C(N)(c3ccc(C)nc3C)c3cnnn3C)cc2c(Cl)c1Cc1ccc(C(F)(F)F)cc1 (single isomer, unassigned) [Example 87B]	µM	0.85
COc1nc2c(C)cc(C(O)(c3cncn3C)c3cncn3C)cc2c(Cl)c1Cc1ccc(S(C)(=O)=O)cc1	µM	0.057
COc1nc2ccc(C(O)(c3ccc(Cl)cc3)c3cncn3C)cc2c(Cl)c1Cc1ccc(S(C)(=O)=O)cc1 (stereo not shown)	µM	0.19

Working through the 6 molecules below one at a time, give IC50 for each.
1. COc1nc2c(C)cc(C(O)(c3ccc(C(F)(F)F)nc3)c3cncn3C)cc2c(Cl)c1Cc1ccc(-n2cccn2)cc1 (single isomer, unassigned) [Example 29C]
2. CCOc1nc2ccc(C(O)(c3ccc(Cl)cc3)c3cncn3C)cc2c(Cl)c1Cc1ccccc1 (stereo not shown)
3. Cc1cc(C(O)(c2ccc(Cl)cc2)c2cncn2C)cc2c(Cl)c(Cc3ccc(-n4cccn4)cc3)c(Cl)nc12 (stereo not shown) [Example 85]
4. CON(C)c1nc2ccc(C(O)(c3ccc(C(F)(F)F)nc3)c3cncn3C)cc2c(Cl)c1Cc1ccc(-n2cccn2)cc1 (single isomer, unassigned) [Example 67B]
5. Cn1cncc1C(O)(c1ccc(Cl)cc1)c1ccc2nc(O)c(Cc3ccc(-n4cccn4)cc3)c(Cl)c2c1 (single isomer, unassigned) [Example 55B]
6. COc1nc2ccc(C(O)(c3ccc(N(C)C)cc3)c3cncn3C)cc2c(Cl)c1Cc1ccc(-n2cccn2)cc1 (stereo not shown)

Key:
[0.081, 0.56, 0.29, 0.035, 2.4, 0.48]
